Origin of values: patent US20250296938A1

biological target: KRas G12D mutant (Homo sapiens, UniProt P01116, G12D); construct: fused on or other part: His tag, used for capture on nickel-coated plates; experiment: Ras GTP binding domain inhibition assay (Cy3-GTP/Cy5-GTP competition); conditions: at 20 μM, without SOS; read-out: KRas G12D mutant: % inh.
endpoint: inhibition at 20 µM

compound="Cc1c(-c2ccn(C)n2)sc2nc(-c3nccn3C)nc(NCCOC(=O)N(C)C)c12 [drawing 1053]" target_under_test="KRas G12D mutant (Homo sapiens, UniProt P01116, G12D)" endpoint="inhibition at 20 µM" measured="76 to 100%"
compound="COc1cccc(-c2sc3nc(-c4nccn4C)nc(N[C@@H]4CC[C@H](C=O)C4)c3c2-c2ccccc2)c1F (racemic)" target_under_test="KRas G12D mutant (Homo sapiens, UniProt P01116, G12D)" endpoint="inhibition at 20 µM" measured="51 to 75%"
compound="COC1CCN(c2nc(-c3nccn3C)nc3sc(-c4ccn(C)n4)c(-c4ccccc4)c23)CC1 [drawing 991]" target_under_test="KRas G12D mutant (Homo sapiens, UniProt P01116, G12D)" endpoint="inhibition at 20 µM" measured="26 to 50%"

Please look at the following compound next.
For the record CCOc1cccc(Nc2nc(-c3ccccn3)nc(O)c2OC)c1 [drawing 1017] , what value of inhibition at 20 µM is listed for KRas G12D mutant (Homo sapiens, UniProt P01116, G12D)?
51 to 75%
